Assay: Cytotoxicity in HepG2 cells, 4 days, Resazurin assay
Conditions: human, HepG2 cells
endpointLabel: CC50 at 4 days

INSERT INTO results (compound, reported) VALUES
  ('Cc1cc(NC(=O)c2cccc(S(=O)(=O)NC3CCC(F)(F)CC3)c2)ccc1F [Compound 149]', '20.8 µM'),
  ('Cc1cc(NC(=O)c2cccc(S(=O)(=O)NC3Cc4ccccc4C3O)c2)ccc1F (stereo not drawn) [Compound 141]', '> 25 µM'),
  ('O=C(Nc1cccc(C(F)(F)F)c1)c1cc(S(=O)(=O)NC2CCCCC2)ccc1F [Compound 7]', '11.4 µM'),
  ('Cc1cc(NC(=O)c2cccc(S(=O)(=O)NCC(F)F)c2)ccc1F [Compound 227]', '> 25 µM'),
  ('Cc1cc(NC(=O)c2cccc(S(=O)(=O)NC3(C)CCOC3)c2)ccc1F (stereo not drawn) [Compound 223]', '> 25 µM'),
  ('Cc1cc(NC(=O)c2cccc(S(=O)(=O)NC3CC4CCC3O4)c2)ccc1F (stereo not drawn) [Compound 128]', '> 25 µM'),
  ('Cc1cc(NC(=O)c2cc(F)cc(S(=O)(=O)N[C@H]3CCOC3)c2)ccc1F [Compound 241]', '> 25 µM'),
  ('Cc1cc(NC(=O)c2c(C)ccc(S(=O)(=O)NC3(C)COC3)c2F)ccc1F [Compound 204]', '> 25 µM'),
  ('Cc1cc(NC(=O)c2cccc(S(=O)(=O)NCCC3CC3)c2)ccc1F [Compound 170]', '> 25 µM'),
  ('Cc1ccc(S(=O)(=O)NC2(C)COC2)c(F)c1C(=O)Nc1cc(F)c(F)c(Cl)c1 [Compound 192]', '> 25 µM'),
  ('COC(=O)N1CC(C)(NS(=O)(=O)c2cccc(C(=O)Nc3ccc(F)c(C)c3)c2)C1 [Compound 157]', '> 25 µM'),
  ('O=C(Nc1ccccc1)c1cc(S(=O)(=O)NC2CCCCC2)ccn1 [Compound 67]', '> 100 µM'),
  ('CC(C)NS(=O)(=O)c1ccc(F)c(C(=O)Nc2ccc(F)c(F)c2)c1F [Compound 202]', '> 25 µM'),
  ('CC1(NS(=O)(=O)c2ccc(Cl)c(C(=O)Nc3ccc(F)c(C#N)c3)c2F)COC1 [Compound 207]', '> 25 µM'),
  ('Cc1cc(NC(=O)c2cccc(S(=O)(=O)NC3CCC(O)C3)c2)ccc1F (single isomer, unassigned) [Compound 145a]', '> 25 µM'),
  ('O=C(Nc1ccc(F)c(F)c1)c1cccc(S(=O)(=O)NC2CCCC2)c1 [Compound 14]', '11.7 µM'),
  ('Cc1cc(NC(=O)c2c(Cl)ccc(S(=O)(=O)NC3(C)COC3)c2F)cc(F)c1F [Compound 209]', '> 25 µM'),
  ('Cc1cc(NC(=O)c2cc(S(=O)(=O)N[C@H]3CCOC3)ccc2C(F)(F)F)ccc1F [Compound 242]', '> 25 µM'),
  ('Cc1cc(NC(=O)c2cccc(S(=O)(=O)N[C@@H]3c4ccccc4C[C@@H]3O)c2)ccc1F [Compound 136]', '> 25 µM'),
  ('Cc1cc(NC(=O)c2cccc(S(=O)(=O)NC3CN(C(=O)OC(C)(C)C)C3)c2)ccc1F [Compound 182]', '> 25 µM'),
  ('CCC1(NS(=O)(=O)c2cccc(C(=O)Nc3ccc(F)cc3)c2)CC1 [Compound 87]', '> 25 µM'),
  ('Cc1cc(NC(=O)c2cccc(S(=O)(=O)N[C@@H]3CCOC3)c2)ccc1F [Compound 129]', '> 25 µM'),
  ('O=C(Nc1ccc(F)c(C(F)(F)F)c1)c1c(F)ccc(S(=O)(=O)N[C@H]2CCOC2)c1F [Compound 200]', '> 25 µM'),
  ('Cc1cc(NC(=O)c2cccc(S(=O)(=O)NC(C)CCN3CCOCC3)c2)ccc1F (stereo not drawn) [Compound 165]', '> 25 µM'),
  ('Cc1cc(NC(=O)c2cccc(S(=O)(=O)N3CCC34COC4)c2)ccc1F [Compound 147]', '> 25 µM'),
  ('Cc1ccc(S(=O)(=O)NC2(C)COC2)cc1C(=O)Nc1ccc(F)c(C(F)F)c1 [Compound 113]', '> 25 µM'),
  ('Cc1cc(NC(=O)c2cccc(S(=O)(=O)NC3CCC(F)(F)C3)c2)ccc1F (stereo not drawn) [Compound 229]', '> 25 µM'),
  ('Cc1cc(NC(=O)c2cccc(S(=O)(=O)NC3CCCC3)c2)ccc1F [Compound 11]', '19.6 µM'),
  ('Cc1cc(NC(=O)c2cccc(S(=O)(=O)N[C@H]3CCCC[C@@H]3O)c2)ccc1F [Compound 131]', '> 25 µM'),
  ('Cc1cc(NC(=O)c2cc(S(=O)(=O)N[C@H]3CCOC3)ccc2C)ccc1F [Compound 121]', '> 25 µM'),
  ('Cc1cc(NC(=O)c2cccc(S(=O)(=O)N[C@H]3CCOC3)c2Cl)ccc1F [Compound 124]', '> 25 µM'),
  ('O=C(Nc1ccccc1)c1cc(S(=O)(=O)NCc2ccccc2)ccc1Cl [Compound 25]', '> 6.25 µM'),
  ('Cc1cc(NC(=O)c2cccc(S(=O)(=O)N[C@H]3C[C@H](O)C3)c2)ccc1F [Compound 184a]', '> 25 µM');
